System under test: EGFR WT (Homo sapiens (Human))
Sequence (P00533 25-1210): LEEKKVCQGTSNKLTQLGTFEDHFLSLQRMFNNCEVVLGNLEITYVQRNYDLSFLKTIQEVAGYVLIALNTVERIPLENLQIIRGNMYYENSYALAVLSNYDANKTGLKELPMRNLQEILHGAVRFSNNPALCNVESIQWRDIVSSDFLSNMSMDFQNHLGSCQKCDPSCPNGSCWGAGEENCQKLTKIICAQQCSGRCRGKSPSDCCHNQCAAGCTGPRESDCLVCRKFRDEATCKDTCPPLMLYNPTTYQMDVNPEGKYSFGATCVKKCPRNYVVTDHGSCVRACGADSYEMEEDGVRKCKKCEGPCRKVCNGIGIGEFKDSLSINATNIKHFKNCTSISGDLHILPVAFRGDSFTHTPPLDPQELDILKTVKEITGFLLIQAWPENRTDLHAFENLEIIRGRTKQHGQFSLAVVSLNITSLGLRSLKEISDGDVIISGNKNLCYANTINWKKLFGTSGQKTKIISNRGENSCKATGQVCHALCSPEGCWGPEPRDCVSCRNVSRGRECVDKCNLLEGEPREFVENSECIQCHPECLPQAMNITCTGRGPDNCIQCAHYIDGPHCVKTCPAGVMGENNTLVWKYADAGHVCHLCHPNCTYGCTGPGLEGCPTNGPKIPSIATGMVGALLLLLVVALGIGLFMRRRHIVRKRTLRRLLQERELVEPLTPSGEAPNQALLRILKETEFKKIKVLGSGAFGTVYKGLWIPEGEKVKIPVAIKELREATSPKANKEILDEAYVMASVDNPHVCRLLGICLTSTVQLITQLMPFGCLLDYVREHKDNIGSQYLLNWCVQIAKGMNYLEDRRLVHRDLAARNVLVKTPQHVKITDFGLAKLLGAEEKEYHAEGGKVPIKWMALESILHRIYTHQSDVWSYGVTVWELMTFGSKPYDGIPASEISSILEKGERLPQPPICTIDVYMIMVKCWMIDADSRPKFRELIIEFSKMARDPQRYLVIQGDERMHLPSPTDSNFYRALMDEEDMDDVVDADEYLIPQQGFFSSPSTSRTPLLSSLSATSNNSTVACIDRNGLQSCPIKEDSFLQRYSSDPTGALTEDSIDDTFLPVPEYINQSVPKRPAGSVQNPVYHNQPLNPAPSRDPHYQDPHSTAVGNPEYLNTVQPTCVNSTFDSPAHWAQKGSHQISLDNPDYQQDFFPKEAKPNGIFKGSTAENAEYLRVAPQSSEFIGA
pIC50: −log10 of the molar value.
Readout: pIC50

Before answering, review these 5 worked examples.
>  <Compound>
C=CC(=O)N[C@H]1C[C@H](C)CN(c2ccc3ncnc(Nc4ccc(Oc5ccc6c(c5)nnn6C)c(C)c4F)c3n2)C1 (single isomer, unassigned)

>  <pIC50>
6.30 to 7.00

$$$$
>  <Compound>
C=C(F)C(=O)N1CCN(c2ccc3ncnc(Nc4ccc(Oc5ccc6c(c5)nnn6C)c(C)c4)c3n2)C[C@H]1COC

>  <pIC50>
≤ 6.00

$$$$
>  <Compound>
C=CC(=O)N[C@]1(C)CCN(c2ncc3ncnc(Nc4ccc(Oc5ccc6c(c5)nnn6C)c(C)c4F)c3n2)C1

>  <pIC50>
> 7.30

$$$$
>  <Compound>
Cc1cc(Nc2ncnc3ccc(N4CCN(C(=O)/C=C/CF)[C@H](C)C4)nc23)ccc1Oc1ccc2c(c1)nnn2C

>  <pIC50>
6.30 to 7.00

$$$$
>  <Compound>
C=CC(=O)N1CC2CN(c3ncc4ncnc(Nc5ccc(Oc6ccc7c(c6)nnn7C)c(C)c5)c4n3)CC2C1 (centres unmarked)

>  <pIC50>
≤ 6.00

$$$$

Form field - read-out: pIC50; system: EGFR WT (Homo sapiens (Human)); submitted item: "C=CC(=O)N1CCN(c2ccc3ncnc(Nc4ccc(Oc5ccc6c(c5)ncn6C(F)F)c(C)c4F)c3n2)C[C@H]1C" 6.30 to 7.00

Form field - read-out: pIC50; system: EGFR WT (Homo sapiens (Human)); submitted item: "C=CC(=O)NC1(C(F)(F)F)CCN(c2ccc3ncnc(Nc4ccc(Oc5ccc6c(c5)nnn6C)c(C)c4F)c3n2)CC1" 6.30 to 7.00

Form field - read-out: pIC50; system: EGFR WT (Homo sapiens (Human)); submitted item: "C=CC(=O)N1C2CCC1CN(c1ncc3ncnc(Nc4ccc(Oc5ccc6c(c5)nnn6C)c(C)c4)c3n1)C2" 6.30 to 7.00

Form field - read-out: pIC50; system: EGFR WT (Homo sapiens (Human)); submitted item: C=CC(=O)N(C)C1C2CN(c3ncc4ncnc(Nc5ccc(Oc6cc(F)c7c(c6)nnn7C)c(C)c5F)c4n3)CC21 (centres unmarked) 7.00 to 7.30

Form field - read-out: pIC50; system: EGFR WT (Homo sapiens (Human)); submitted item: C=CC(=O)N1C2CCCC1CC(c1ccc3ncnc(Nc4cc(C)c(Oc5ccc6c(c5)nnn6C)cc4OC)c3n1)C2 (centres unmarked) 6.30 to 7.00

Form field - read-out: pIC50; system: EGFR WT (Homo sapiens (Human)); submitted item: "C=CC(=O)N1CCN(c2ccc3ncnc(Nc4ccc(Oc5ccc6c(c5)nnn6C)c(C)c4)c3n2)[C@@H](C)C1" 6.30 to 7.00

Form field - read-out: pIC50; system: EGFR WT (Homo sapiens (Human)); submitted item: "C=CC(=O)N1CCN(c2ccc3ncnc(Nc4cc(F)c(Oc5ccc6c(c5)nnn6C)c(Cl)c4)c3n2)C[C@H]1C" 7.00 to 7.30

Form field - read-out: pIC50; system: EGFR WT (Homo sapiens (Human)); submitted item: C=CC(=O)N[C@@H]1C[C@H](C)CN(c2ncc3ncnc(Nc4ccc(Oc5ccc6c(c5)nnn6C)c(C)c4F)c3n2)C1 (single isomer, unassigned) ≤ 6.00

Form field - read-out: pIC50; system: EGFR WT (Homo sapiens (Human)); submitted item: "C=CC(=O)N1CC[C@H](Oc2ncc3ncnc(Nc4ccc(Oc5cc(F)c6c(c5)ncn6C)c(C)c4)c3n2)C1" > 7.30
